Biological target: SARS-CoV Spike protein (SARS-CoV, UniProt P59594 14-1190)
Kindly supply the reported bead binding signal (fold over isotype control) values for the records listed here.
// return a plain number; no unit text

Q) Quick one: bead binding signal (fold over isotype control) of antibody 475 (antibody, V domains shown) VH: QVQLVESGGGVVQPGRSLRLSCAASGFTFSSYAMHWVRQAPGKGLEWVTFISHEGSNKYYADSVKGRFTISRDNSKNTLYLQMNSLRAEDTAVYYCARTFEYSSSSATGDFDYWGQGTLVTVSS VL: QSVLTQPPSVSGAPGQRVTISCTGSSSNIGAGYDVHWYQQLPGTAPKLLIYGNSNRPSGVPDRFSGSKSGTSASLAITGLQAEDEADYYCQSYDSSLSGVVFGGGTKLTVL ?
A) 1.18

Q) Quick one: bead binding signal (fold over isotype control) of antibody 474 (antibody, V domains shown) VH: EVQLVESGGGLVQPGGSLRLSCAASGFTFSSYWMHWVRQAPGKGLVWVSRINSDGSSTSYADSVKGRFTISRDNAKNTLYRQMNSLRAEDTAVYYCALGPLDIVGSYYYYGMDVWGQGTTVTVSS VL: NFMLTQPHSVSESPGKTVTISCTGSSGSIASNYVQWYQQRPGSAPTTVIYEDNQRPSGVPDRFSGSIDSSSNSASLTISGLKTEDEADYYCQSYDSSNQDVVFGGGTKLTVL ?
A) 1.1

Q) Quick one: bead binding signal (fold over isotype control) of antibody 454 (antibody, V domains shown) VH: QVQLVQSGAEVKKPGASLKVSCKASGYIFTGYYMHWVRQAPGQGLEWMGWISPNSGGTKYAQKFQGRVTMTRDTSISTAYMELSRLRSDDSAVYYCAREPYYDILTGYYTPRRYLDYWGQGTLVTVSS VL: QSALTQPASVSGSPGQSITISCTGTSSDVGDYNYVSWYQQHPGKVPKLMIYDVSHRPSGVTNRFSGSKSGNTASLTISGLRAEDEADYYCSSYTSSSTYVFGTGTKVTVL ?
A) 1.1

Q) Quick one: bead binding signal (fold over isotype control) of antibody 443 (antibody, V domains shown) VH: QMRLEESGPGLVKPSETLSLTCTVAGGSITSSDYFWGWLRQSPGKGLEWIASTYHGGSIQYHPALKSRVTISVDASKNQISLRLSSVTAADTAVYYCARDRGDDGPMGTYYFDHWGQGALVTVSS VL: QSVLTQPPSVSGAPGQSVTISCAGSSSNIGAGHDVHWYQQIPGTAPKLLICGNTNRPSGVPERFSGSRSGTSASLAITGLQAEDEAVYYCQSYDPSHVFFGTGTKLTVL ?
A) 1.03

The reported numbers originate from patent US20220356229A1.
